Reference source for all entries: paper PMC9289467

- procedureText: Single-dose pharmacokinetics in mice (plasma and brain, UPLC-TSQ/MS)
- Type: in vivo, C57BL/6J mice
- experimentalContext: male, C57BL/6J, mouse, plasma, po, 40 mg/kg, p.o. 40 mg/kg
measureName: Cmax (ng/mL)
Numeric answer only, unit ng/mL assumed.

# get_value(readout='Cmax', item= CCN(C)C(=O)Oc1cccc(/C=C2\Cc3cc(OC)c(OC)cc3C2=O)c1 ) 2090

* * *

- procedureText: Single-dose pharmacokinetics in mice (plasma and brain, UPLC-TSQ/MS)
- Assay type: in vivo, C57BL/6J mice
- experimentalContext: male, C57BL/6J, iv; plasma, i.v. 10 mg/kg, mouse
measureName: half-life (h)
Numeric answer only, unit h assumed.

# get_value(readout='half-life', item= CCN(C)C(=O)Oc1cccc(/C=C2\Cc3cc(OC)c(OC)cc3C2=O)c1 ) 3.34

* * *

- procedureText: Single-dose pharmacokinetics in mice (plasma and brain, UPLC-TSQ/MS)
- Type: in vivo, C57BL/6J mice
- experimentalContext: male, C57BL/6J, po; plasma, p.o. 40 mg/kg, mouse
measureName: AUC(0-inf) (ng·h/mL)
Numeric answer only, unit ng·h/mL assumed.

# get_value(readout='AUC(0-inf)', item= CCN(C)C(=O)Oc1cccc(/C=C2\Cc3cc(OC)c(OC)cc3C2=O)c1 [AP5] ) 7260

* * *

- procedureText: Single-dose pharmacokinetics in mice (plasma and brain, UPLC-TSQ/MS)
- Type: in vivo, C57BL/6J mice
- experimentalContext: male, C57BL/6J, mouse, brain/plasma, po, 40 mg/kg, AUCINF brain/AUCINF plasma × 100, p.o. 40 mg/kg, read-out: B/P (brain-to-plasma distribution ratio, brain penetration)
measureName: Kp

# get_value(readout='Kp', item= CCN(C)C(=O)Oc1cccc(/C=C2\Cc3cc(OC)c(OC)cc3C2=O)c1 ) > 0.1

* * *

- procedureText: Single-dose pharmacokinetics in mice (plasma and brain, UPLC-TSQ/MS)
- Type: in vivo, C57BL/6J mice
- experimentalContext: male, C57BL/6J, po; plasma, p.o. 40 mg/kg, mouse
measureName: AUC(0-t) (ng·h/mL)
Numeric answer only, unit ng·h/mL assumed.

# get_value(readout='AUC(0-t)', item= CCN(C)C(=O)Oc1cccc(/C=C2\Cc3cc(OC)c(OC)cc3C2=O)c1 ) 6990

* * *

- procedureText: Single-dose pharmacokinetics in mice (plasma and brain, UPLC-TSQ/MS)
- Format: in vivo, C57BL/6J mice
- experimentalContext: male, C57BL/6J, iv; plasma, i.v. 10 mg/kg, mouse
- Protocol: To determine the pharmacokinetics of AP5 in mice, the mice were administered a single dose of AP5 by i.v. and oral gavage dose routes. The plasma and brain homogenate were detected by UPLC-TSQ/MS(Thermo Fisher Scientific, Waltham, MA, United States). The plasma drug concentrations were analyzed for PK data by DAS (Drug and Statistics) Version 3.0 (BioGuider Corporation, Shanghai, China). Bioavailability (F%) after oral administration was calculated as AUCINF p.o./AUCINF i.v./4 × 100. […]
measureName: clearance (mL/min/kg)
Numeric answer only, unit mL/min/kg assumed.

# get_value(readout='clearance', item= CCN(C)C(=O)Oc1cccc(/C=C2\Cc3cc(OC)c(OC)cc3C2=O)c1 [AP5] ) 125
